Parameter 'readout' = pKi; parameter 'system' = Substance-P receptor (Homo sapiens, UniProt P25103).
Sequence (P25103 whole entry): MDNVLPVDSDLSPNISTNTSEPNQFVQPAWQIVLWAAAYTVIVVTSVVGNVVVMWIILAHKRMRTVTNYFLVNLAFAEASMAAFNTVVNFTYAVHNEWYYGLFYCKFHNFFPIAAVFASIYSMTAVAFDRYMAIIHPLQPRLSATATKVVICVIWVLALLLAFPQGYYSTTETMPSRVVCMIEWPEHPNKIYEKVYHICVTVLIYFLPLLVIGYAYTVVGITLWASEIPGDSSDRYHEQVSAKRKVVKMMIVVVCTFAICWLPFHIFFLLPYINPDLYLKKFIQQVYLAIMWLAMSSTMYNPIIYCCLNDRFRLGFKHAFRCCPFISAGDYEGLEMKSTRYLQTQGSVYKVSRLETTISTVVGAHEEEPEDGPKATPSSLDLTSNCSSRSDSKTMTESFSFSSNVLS
pKi: −log10 of the molar value.
observation_type: pKi

[[record]]
compound = "CO/N=C(\\COCc1cc(C(F)(F)F)cc(C(F)(F)F)c1)C(CCN1CCC(CN2CCCCC2CCO)CC1)c1ccc(Cl)c(Cl)c1 (configuration not stated)"
value_observed = 7.89

[[record]]
compound = "CO/N=C(\\COCc1cc(C(F)(F)F)cc(C(F)(F)F)c1)C(CCN1CCC(CN2CCCCC2=O)CC1)c1ccc(Cl)c(Cl)c1 (configuration not stated)"
value_observed = 8.00

[[record]]
compound = "CO/N=C(\\COCc1cc(C(F)(F)F)cc(C(F)(F)F)c1)C(CCN1CCC(N2CCCC2=S)CC1)c1ccc(Cl)c(Cl)c1 (configuration not stated)"
value_observed = 7.80

[[record]]
compound = "CO/N=C(\\COCc1cc(C(F)(F)F)cc(C(F)(F)F)c1)C(CCN1CCC(CNC(=O)c2ccccc2)CC1)c1ccc(Cl)c(Cl)c1 (configuration not stated)"
value_observed = 6.95

[[record]]
compound = "CO/N=C(\\COCc1cc(C(F)(F)F)cc(C(F)(F)F)c1)C(CCN1CCC(CN2CCCC(Cc3ccccc3)C2=O)CC1)c1ccc(Cl)c(Cl)c1 (configuration not stated)"
value_observed = 7.16

[[record]]
compound = "CO/N=C(\\COCc1cc(C(F)(F)F)cc(C(F)(F)F)c1)C(CCN1CCC(CNC2(CO)CCCC2)CC1)c1ccc(Cl)c(Cl)c1 (configuration not stated)"
value_observed = 7.62

[[record]]
compound = "CO/N=C(\\COCc1cc(C(F)(F)F)cc(C(F)(F)F)c1)C(CCN1CCC(CN2CCCCC2)CC1)c1ccc(Cl)c(Cl)c1 (configuration not stated)"
value_observed = 7.44

